Exercise: for every item that follows, state its recorded Emax.
target.entity: LXRβ (Homo sapiens, UniProt P55055)
Construct: Co-transfection expression plasmids, comprising full-length LXRα (pCMX-h LXRα[…] or LXRβ (pCMX-hLXRβ)); expressed in transfected cells; host or cells: CV-1 African Green Monkey Kidney Cells
protocol.description: Co-transfection assay (LXRE luciferase reporter), LXRβ
Assay type: cell-based
condition.set: LXRβ co-transfection; relative to high control 1-(2,4-difluorobenzyl)-2-oxo-6-(4-phenoxyphenyl)-4-(trifluoromethyl)-1,2-dihydropyridine-3-carbonitrile; read-out: % Efficacy
Answer with the number, then the unit.

Provide each entry's Emax from the list below.
1. Cc1nc(-c2cc(-c3cccc(S(C)(=O)=O)c3)ccc2-n2cc(C(F)(F)F)nc2C)c(-c2ccc(F)c(C#N)c2)o1 [Example 506]
2. Cc1nc(C(F)F)cn1-c1ccc(-c2cccc(S(C)(=O)=O)c2)cc1-n1nncc1-c1ccc(Cl)cc1 [Example 162]
3. Cc1nc(-c2cc(-c3cccc(S(=O)(=O)C4CC4)c3)ccc2-n2cc(C(F)(F)F)nc2C)c(-c2ccc3c(c2)OC(F)(F)O3)o1 [Example 416]
4. Cc1nc(C(F)(F)F)cn1-c1ccc(-c2cccc(S(C)(=O)=O)c2)cc1-n1nncc1C(=O)c1cccc(C(F)(F)F)c1 [Example 137]

Found:
["77%", "65%", "76%", "63%"]

---

Exercise: for every item that follows, state its recorded Emax.
target.entity: LXRβ (Homo sapiens)
Construct: Co-transfection expression plasmids, comprising full-length LXRα (pCMX-h LXRα[…] or LXRβ (pCMX-hLXRβ)); expressed in transfected cells; host or cells: CV-1 African Green Monkey Kidney Cells
protocol.description: Co-transfection assay (LXRE luciferase reporter), LXRβ
Assay type: cell-based
condition.set: LXRβ co-transfection; relative to high control 1-(2,4-difluorobenzyl)-2-oxo-6-(4-phenoxyphenyl)-4-(trifluoromethyl)-1,2-dihydropyridine-3-carbonitrile; read-out: % Efficacy
Procedure: To measure the ability of compounds to activate or inhibit the transcriptional activity of LXR in a cell based assay, the co-transfection assay was used. It has been shown that LXR functions as a heterodimer with RXR. […] Treatment of transfected cells with an LXR agonist increases the transcriptional activity of LXR, which is measured by an increase in luciferase activity. […]
Answers are plain numbers, in %.

The cases that follow already have their Emax on record.
Cc1nc(C(F)(F)F)cn1-c1ccc(-c2cccc(S(C)(=O)=O)c2)cc1-n1nncc1-c1ccc(OC(F)(F)F)c(Cl)c1 90
Cc1nc(C(F)(F)F)cn1-c1c(F)cc(-c2cccc(S(C)(=O)=O)c2)cc1-n1nncc1-c1ccc(Cl)cc1Cl 91

Next, consider the following compound.
Lookup: Supply recorded Emax for CNS(=O)(=O)c1cccc(-c2ccc(-n3cc(C(F)F)nc3C)c(-n3nncc3-c3ccc(OC(F)(F)F)cc3)c2)c1 here.
Found: 91

---

target.entity: LXRβ (Homo sapiens)
Construct: Co-transfection expression plasmids, comprising full-length LXRα (pCMX-h LXRα[…] or LXRβ (pCMX-hLXRβ))
Sequence (P55055 1-460): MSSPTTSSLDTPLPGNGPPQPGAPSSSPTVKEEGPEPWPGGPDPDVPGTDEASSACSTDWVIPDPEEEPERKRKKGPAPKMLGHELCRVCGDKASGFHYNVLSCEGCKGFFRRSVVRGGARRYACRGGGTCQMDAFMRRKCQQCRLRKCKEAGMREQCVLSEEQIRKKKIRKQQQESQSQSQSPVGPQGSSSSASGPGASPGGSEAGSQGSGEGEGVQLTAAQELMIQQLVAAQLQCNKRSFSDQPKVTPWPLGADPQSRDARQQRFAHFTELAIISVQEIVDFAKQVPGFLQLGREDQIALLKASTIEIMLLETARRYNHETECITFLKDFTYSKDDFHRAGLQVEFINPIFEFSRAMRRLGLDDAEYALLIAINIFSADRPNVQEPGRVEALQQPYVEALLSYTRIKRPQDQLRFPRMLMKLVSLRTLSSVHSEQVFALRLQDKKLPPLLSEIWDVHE
Sequence (P19793 1-462 partner): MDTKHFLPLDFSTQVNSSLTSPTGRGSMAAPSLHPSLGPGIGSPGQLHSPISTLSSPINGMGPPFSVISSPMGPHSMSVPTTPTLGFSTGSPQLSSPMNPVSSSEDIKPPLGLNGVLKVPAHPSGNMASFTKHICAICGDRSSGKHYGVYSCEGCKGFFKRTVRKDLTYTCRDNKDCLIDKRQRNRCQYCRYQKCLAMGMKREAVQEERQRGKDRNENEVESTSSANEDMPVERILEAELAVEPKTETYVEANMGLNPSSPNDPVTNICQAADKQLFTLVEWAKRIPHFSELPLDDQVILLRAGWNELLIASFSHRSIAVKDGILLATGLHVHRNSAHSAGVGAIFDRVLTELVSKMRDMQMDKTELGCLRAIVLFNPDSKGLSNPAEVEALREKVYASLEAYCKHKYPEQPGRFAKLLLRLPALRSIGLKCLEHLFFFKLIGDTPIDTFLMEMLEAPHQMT
protocol.description: Co-transfection assay (LXRE luciferase reporter), LXRβ
condition.set: CV-1 cells transfected with pCMX-hLXRβ and LXREx1-Tk-Luciferase; 20 hours incubation
Experimental: To measure the ability of compounds to activate or inhibit the transcriptional activity of LXR in a cell based assay, the co-transfection assay was used. It has been shown that LXR functions as a heterodimer with RXR. […] Treatment of transfected cells with an LXR agonist increases the transcriptional activity of LXR, which is measured by an increase in luciferase activity. […]
The label is class 1 for EC50 below 100 nM and class 0 for EC50 equal to or exceeding 100 nM.

Solved entries (count: 5):
compound	target.entity	assigned.class
Cc1nc(C(F)(F)F)cn1-c1ccc(-c2cccc(S(C)(=O)=O)c2)cc1-c1nc(C(F)(F)F)cn1-c1ccc2c(c1)OC(F)(F)O2 [Example 640]	LXRβ (Homo sapiens)	class 0
Cc1nc(C(F)(F)F)cn1-c1ccc(-c2cc(F)c(CO)c(S(C)(=O)=O)c2)cc1-n1nncc1C(=O)c1ccc(Cl)cc1 [Example 140]	LXRβ (Homo sapiens)	class 0
CNS(=O)(=O)c1cccc(-c2ccc(-n3cc(C(F)(F)F)nc3C)c(-n3nncc3-c3ccc(OC(F)(F)F)cc3)c2)c1 [Example 213]	LXRβ (Homo sapiens)	class 1
Cc1nc(-c2cc(-c3cccc(S(C)(=O)=O)c3)ccc2-n2cc(C(F)(F)F)nc2C)c(-c2ccc(OCC3CC3)c(F)c2)o1 [Example 404]	LXRβ (Homo sapiens)	class 0
Cc1nc(C(F)(F)F)cn1-c1ccc(-c2cc(F)c(CO)c(S(C)(=O)=O)c2)cc1-n1nncc1-c1ccc(Cl)cc1Cl [Example 67]	LXRβ (Homo sapiens)	class 0

Lookup: Just wondering, is EC50 of Cc1cc(-c2cnnn2-c2cc(-c3cccc(S(C)(=O)=O)c3)ccc2-n2cc(C(F)(F)F)nc2C)ccc1OC(F)(F)F [Example 20] below 100 nM?
Found: class 0

Reference source for all entries: patent US9834542B2
